- test.method.notes: NF-kB promoter reporter activators, neuronal cells, dose response, cell-based, SH-SY5Y, luciferase (AID 1241)
- experimental.context: fold induction
Please go through the items and note down their pEC50.
Answers are plain numbers, as −log10 of the molar value.

> print(dat)
                                   molecule  measurement.name  value.measured
1  CCN(CC)c1ccc(N=Nc2nn(C)c(C)c2[N+](=O)[O-])cc1             pEC50            5.09

Please look at the items below and tell me pEC50 for each one, in order.
1. Cc1ccc(C(=O)Nc2ccc(Cl)cn2)cc1
2. CC(=O)c1sc(N/N=C\c2ccccc2O)nc1C
3. O=C(Nc1ccc(Cl)cc1)C1=Cc2ccccc2OC1
4. C(=N\Nc1nc(-c2ccccc2)cs1)/c1ccco1
5. Cc1ccc(NC(=S)N2CCC(c3ccccc3)C2)c(Cl)c1 (stereo not given)
6. COc1ccc2nc(NC(=O)Nc3ccccc3)sc2c1

result:
1: 4.76; 2: 5.26; 3: 5.65; 4: 5.77; 5: 5.75; 6: 6.05

# credit: PubChem BioAssay AID1241
